src = the nanobody polyreactivity screen of Harvey et al. (2022)

assay: yeast display, Sf9 membrane polyspecificity reagent, FACS + sequencing; frameworks hold sequencing errors
Recorded endpoint: polyreactivity (PSR sort gate)

Sequence data | polyreactivity (PSR sort gate)
QVQLVESGGGLVQAGGSLRLSCAASGYIIFGNAMGWYRQAPGKERELVAAIRWRGTSTYYADSVKGRFTISRDNAKNTVYLQMNSLKPEDTAVYYCAADVVRSNFYGTFLYDYDYWGQGTQVTVSS | low polyreactivity
QVQLVESGGGLVQAGGSLRLSCAASGFIFYRYAMGWYRQAPGKERELVASITRSGGSTYYADSVKGRFTISRDNAKNTVYLQMNCLKPEDTAVYYCAADRYLGTYRYRYDYWGQGTQVTVSS | high polyreactivity
QVQLVESAGGLVQAGGSLRLSCAASGRIFSIYAMGWSRQAPGKERELVAAIRRGGSTSYADSVKGRFTISRDNAKNTVYLQMNSLKPEDTAVYYCAARLRYLGYDFWGQGTQVTVSS | high polyreactivity
QVQLVESGGGLVQAGGSLRLSCAASGSIFFDNAMGWYRQAPGKERELVAAIDSSGGSTYYADSVKGRFTISRDNAKNTVYLQMNSLKPEDTAVYYCAREQYVPSPYSFFDEFEYWGQGTQVTVSS | low polyreactivity

// for each sequence in input: emit polyreactivity (PSR sort gate)
1. QVQLVESGGGLVQAGGTLRLSCAASGITFDYNAMGWYRQAPGKERELVATISDTGSTNYADSVKGRFTISRDNAKNTVYLQMNSLKPEDTAVYYCAADGLGDYHPKWEYQEYDYWGQGTQVTVSS
2. QVQLVESGGGLVQAGGSLRLSCAASGSTFTSNAMGWYRQAPGKERELVAAISFSDASTYYADSVKGRFTISRDNAKKTVYLQMNRLKPEDTAVYYCNADYPTTAYDYCGQGTQVTVSS

A:
1: low polyreactivity; 2: low polyreactivity
